assay: WST-8 cell proliferation; conditions: human
READOUT NAME: CC50 at 48 h (µM)
Answer with a number only, understood to be in µM.

Data request: Entry under review: O=C(Nc1ccc([N+](=O)[O-])cc1Cl)c1cccc([N+](=O)[O-])c1O . Reported CC50 at 48 h?
Data returned: 31.9

---

system: A549 cells; experiment: WST-8 cell proliferation; conditions: read-out: CC50 (A549); cell viability, A549 cells, 48 h
Give measured log10 CC50 for each item. Keep answers brief.
All values: base-10 log of CC50 in µM.

Data request: Entry under review: O=C(Nc1ccc2c(c1)S(=O)(=O)C=C2)c1cc(Cl)ccc1O . Reported log10 CC50?
Data returned: 2.38

Data request: Entry under review: CN1CCN(CCOc2ccc(Cl)cc2C(=O)Nc2ccc([N+](=O)[O-])cc2Cl)CC1 . Reported log10 CC50?
Data returned: 2.25

Data request: Entry under review: Nc1ccc(NC(=O)c2cc(Cl)ccc2O)c(Cl)c1 . Reported log10 CC50?
Data returned: 2.25

Data request: Entry under review: NCCCCOc1ccc(Cl)cc1C(=O)Nc1ccc([N+](=O)[O-])cc1Cl . Reported log10 CC50?
Data returned: 1.45

Data request: Entry under review: NCCCOc1ccc(Cl)cc1C(=O)Nc1ccc([N+](=O)[O-])cc1Cl . Reported log10 CC50?
Data returned: 1.25

Data request: Entry under review: CN1CCC(Oc2ccc(Cl)cc2C(=O)Nc2ccc([N+](=O)[O-])cc2Cl)CC1 . Reported log10 CC50?
Data returned: 1.96

---

test system: ZIKV; assay: Viral titer reduction assay, ZIKV in A549 cells; format: cell-based, Zika virus; settings: read-out: EC50-ZK (A549); virus production, A549 cells
READOUT NAME: pEC50
// pEC50: -log10(molar conc.)

Data request: Entry under review: NCCCOc1ccc(Cl)cc1C(=O)Nc1ccc([N+](=O)[O-])cc1Cl [HJC0308] . Reported pEC50?
Data returned: 5.21

Data request: Entry under review: NCCCCOc1ccc(Cl)cc1C(=O)Nc1ccc([N+](=O)[O-])cc1Cl [HJC0431] . Reported pEC50?
Data returned: 6.44

Data request: Entry under review: CN1CCN(CCOc2ccc(Cl)cc2C(=O)Nc2ccc([N+](=O)[O-])cc2Cl)CC1 [HJC0365] . Reported pEC50?
Data returned: 5.22

Data request: Entry under review: CN1CCC(Oc2ccc(Cl)cc2C(=O)Nc2ccc([N+](=O)[O-])cc2Cl)CC1 [HJC0381] . Reported pEC50?
Data returned: 5.41

Data request: Entry under review: O=C(Nc1ccc2c(c1)S(=O)(=O)C=C2)c1cc(Cl)ccc1O [HJC0149] . Reported pEC50?
Data returned: 5.96

---

tested on: DENV2 replicon; assay: DENV2 replicon assay; type: cell-based; conditions: Dengue virus, DENV2, BHK-21, 48 h, read-out: EC50-DN2 (DENV2 replicon cell line)
READOUT NAME: pEC50
// pEC50: -log10(molar conc.)

Data request: Entry under review: O=C(Nc1ccc([N+](=O)[O-])cc1Cl)c1cc(Cl)ccc1O [Niclosamide, reference compound] . Reported pEC50?
Data returned: 5.70

Reference for the values: paper PMC7559020
